Can you tell me IC50 for the items I'm about to list?
# tested.on: PD-1/PD-L1 (Homo sapiens)
# run.description: TR-FRET PD-1/PD-L1 binding inhibition at the molecular level (free proteins)
# cond: Tag1-PD-L1 and Tag2-PD-1 proteins, twelve concentrations from 200 nM, 2 hours at room temperature, read-out: FRET assay (IC50)

QUERY: Kindly state the measured IC50 obtained for CC(C)(N[C@@H]1CCCn2nc(C(=O)Nc3cccc(-c4cccc(Nc5nc(C(F)F)nc6cc(CN7CC[C@@H](O)C7)cnc56)c4Cl)c3Cl)cc21)C(=O)O with PD-1/PD-L1 (Homo sapiens).
RESULT: 10 to 100 nM

QUERY: Kindly state the measured IC50 obtained for CC(=O)NCCNC1CCCn2nc(C(=O)Nc3cccc(-c4cccc(NC(=O)c5cc6n(n5)CCCC6NCCNC(C)=O)c4C)c3C)cc21 (stereo not drawn) with PD-1/PD-L1 (Homo sapiens).
RESULT: < 10 nM

QUERY: Kindly state the measured IC50 obtained for COc1nc(-c2cccc(-c3cccc(-c4cc5n(n4)CCCC5N4CC[C@@H](O)C4)c3C)c2C)cnc1CNC[C@@H]1CCC(=O)N1 (stereo partly drawn) with PD-1/PD-L1 (Homo sapiens).
RESULT: 10 to 100 nM

QUERY: Kindly state the measured IC50 obtained for O=C(O)CNC1CCCn2nc(C(=O)Nc3cccc(-c4cccc(NC(=O)c5ccc(CN6CC[C@@H](O)C6)c(F)n5)c4Cl)c3Cl)cc21 (stereo partly drawn) with PD-1/PD-L1 (Homo sapiens).
RESULT: < 10 nM

QUERY: Kindly state the measured IC50 obtained for COc1cc(C(=O)Nc2cccc(-c3cccc(NC(=O)c4cc5n(n4)CCCC5NCC(=O)O)c3Cl)c2Cl)cc(F)c1CN1CC[C@@H](C(=O)O)C1 (stereo partly drawn) with PD-1/PD-L1 (Homo sapiens).
RESULT: < 10 nM

QUERY: Kindly state the measured IC50 obtained for Cc1c(NC(=O)c2cc3n(n2)CCCC3N2CC[C@@H](O)C2)cccc1-c1cccc(-c2nc3c(s2)CCN(C)C3)c1C (stereo partly drawn) with PD-1/PD-L1 (Homo sapiens).
RESULT: 10 to 100 nM

----------
# tested.on: PD-1/PD-L1 (Homo sapiens)
# run.description: TR-FRET PD-1/PD-L1 binding inhibition at the molecular level (free proteins)
# cond: Tag1-PD-L1 and Tag2-PD-1 proteins, twelve concentrations from 200 nM, 2 hours at room temperature, read-out: FRET assay (IC50)
assay.readout: IC50

QUERY: Kindly state the measured IC50 obtained for O=C(Nc1cccc(-c2cccc(NC(=O)c3cc4n(n3)CCCC4N3CC[C@@H](O)C3)c2Cl)c1Cl)c1ccc(CNCCO)cn1 (stereo partly drawn) [Compound 85] with PD-1/PD-L1 (Homo sapiens).
RESULT: < 10 nM

QUERY: Kindly state the measured IC50 obtained for CC(C)c1nc(Nc2cccc(-c3cccc(NC(=O)c4cc5n(n4)CCC[C@@H]5NC(C)(C)C(=O)O)c3Cl)c2Cl)c2ncccc2n1 [Compound 299] with PD-1/PD-L1 (Homo sapiens).
RESULT: 10 to 100 nM

QUERY: Kindly state the measured IC50 obtained for O=C(Nc1cccc(-c2cccc(Nc3nccc4cc(CN5CC[C@@H](O)C5)cnc34)c2Cl)c1Cl)c1cc2n(n1)CCCC2NCCO (stereo partly drawn) [Compound 20] with PD-1/PD-L1 (Homo sapiens).
RESULT: 10 to 100 nM

QUERY: Kindly state the measured IC50 obtained for O=C(Nc1cccc(-c2cccc(Nc3nc(C(F)F)nc4cccnc34)c2Cl)c1Cl)c1cc2n(n1)CCC[C@@H]2N1CCC(O)CC1 [Compound 305] with PD-1/PD-L1 (Homo sapiens).
RESULT: 10 to 100 nM

QUERY: Kindly state the measured IC50 obtained for COc1cc(-c2cccc(-c3cccc(NC(=O)c4cc5n(n4)CCCC5O)c3Cl)c2Cl)cc(F)c1CNCCNC(C)=O (stereo not drawn) [Compound 116] with PD-1/PD-L1 (Homo sapiens).
RESULT: 10 to 100 nM

QUERY: Kindly state the measured IC50 obtained for Cc1c(NC(=O)c2cc3n(n2)CCCC3NCCO)cccc1-c1cccc(Nc2nc(C(F)F)nc3cc(CN4CC[C@@H](O)C4)cnc23)c1C (stereo partly drawn) [Compound 132] with PD-1/PD-L1 (Homo sapiens).
RESULT: < 10 nM

----------
Can you tell me pIC50 for the items I'm about to list?
# tested.on: PD-1/PD-L1 (Homo sapiens, UniProt Q9NZQ7)
# Sequence (Q9NZQ7 19-238 limits assumed): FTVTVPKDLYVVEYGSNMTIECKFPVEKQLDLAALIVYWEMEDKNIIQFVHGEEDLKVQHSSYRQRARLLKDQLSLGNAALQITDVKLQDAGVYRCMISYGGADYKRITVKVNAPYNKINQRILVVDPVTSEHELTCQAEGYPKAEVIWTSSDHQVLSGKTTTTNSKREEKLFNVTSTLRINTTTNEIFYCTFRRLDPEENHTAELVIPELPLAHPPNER
# run.description: TR-FRET PD-1/PD-L1 binding inhibition at the molecular level (free proteins)
# cond: Tag1-PD-L1 and Tag2-PD-1 proteins, twelve concentrations from 200 nM, 2 hours at room temperature, read-out: FRET assay (IC50)
pIC50: −log10 of the molar value.

QUERY: Quick one: pIC50 of CC(=O)NCCNC1CCCn2nc(C(=O)Nc3cccc(-c4cccc(NC(=O)c5nc6c(n5C)CCN(CCC57CCC(C(=O)O)(CC5)C7)C6)c4C)c3C)cc21 (stereo not drawn) [Compound 46] ?
RESULT: > 8.00

QUERY: Quick one: pIC50 of O=C(O)CNC1CCCn2nc(C(=O)Nc3cccc(-c4cccc(NC(=O)c5nc6c(s5)CN(CCF)CC6)c4Cl)c3Cl)cc21 (stereo not drawn) [Compound 150-2] ?
RESULT: > 8.00

QUERY: Quick one: pIC50 of CC(C)(NC1CCCn2nc(C(=O)Nc3cccc(-c4cccc(NC(=O)c5ccc(CN6CC[C@@H](O)C6)cn5)c4Cl)c3Cl)cc21)C(=O)O (stereo partly drawn) [Compound 108] ?
RESULT: > 8.00

QUERY: Quick one: pIC50 of Cc1c(NC(=O)c2cc3c(NC(C)(C)C(=O)O)cccn3n2)cccc1-c1cccc(Nc2nccc3cc(CN4CC[C@@H](O)C4)cnc23)c1C [Compound 17] ?
RESULT: > 8.00

QUERY: Quick one: pIC50 of CC(=O)NCCNC1CCCn2nc(C(=O)Nc3cccc(-c4cccc(-c5nc6c(s5)CCN(C)C6)c4C)c3C)cc21 (stereo not drawn) [Compound 152] ?
RESULT: 7.00 to 8.00

QUERY: Quick one: pIC50 of CC(=O)NCCNC1CCCn2nc(C(=O)Nc3cccc(-c4cccc(-c5nc6cc(CN7CC[C@@H](C(=O)O)C7)cc(C#N)c6o5)c4Cl)c3Cl)cc21 (stereo partly drawn) [Compound 69] ?
RESULT: > 8.00

QUERY: Quick one: pIC50 of Cc1c(NC(=O)c2cc3n(n2)CCC[C@@H]3N2CCC(C(=O)O)CC2)cccc1-c1cccc(Nc2nc(C(F)F)nc3cc(CN4CC[C@@H](O)C4)cnc23)c1C [Compound 267] ?
RESULT: > 8.00

QUERY: Quick one: pIC50 of COc1cc(-c2cccc(-c3cccc(NC(=O)c4cc5n(n4)CCC[C@H]5NCC(=O)O)c3Cl)c2Cl)cc(F)c1CNC[C@@H]1CCC(=O)N1 [Compound 250] ?
RESULT: 7.00 to 8.00

QUERY: Quick one: pIC50 of Cc1c(NC(=O)c2ccc(CN3CC[C@@H](O)C3)cn2)cccc1-c1cccc(NC(=O)c2cc3n(n2)CCC[C@@H]3N2CCCC[C@@H]2CO)c1C [Compound 309] ?
RESULT: > 8.00

QUERY: Quick one: pIC50 of O=C(Nc1cccc(-c2cccc(NC(=O)c3cc4n(n3)CCCC4NCCO)c2Cl)c1Cl)c1ccc(CN2CC[C@@H](O)C2)cn1 (stereo partly drawn) [Compound 100] ?
RESULT: > 8.00

QUERY: Quick one: pIC50 of O=C(Nc1cccc(-c2cccc(Nc3nccc4cc(CN5CC[C@@H](O)C5)cnc34)c2Cl)c1Cl)c1cc2n(n1)CCCC2N1CC[C@@H](O)C1 (stereo partly drawn) [Compound 25] ?
RESULT: 7.00 to 8.00

QUERY: Quick one: pIC50 of Cc1nc(Nc2cccc(-c3cccc(NC(=O)c4cc5n(n4)CCC[C@H]5NC(C)(C)C(=O)O)c3Cl)c2Cl)c2ncccc2n1 [Compound 280] ?
RESULT: > 8.00

----------
# tested.on: PD-1/PD-L1 (Homo sapiens)
# run.description: TR-FRET PD-1/PD-L1 binding inhibition at the molecular level (free proteins)
# cond: Tag1-PD-L1 and Tag2-PD-1 proteins, twelve concentrations from 200 nM, 2 hours at room temperature, read-out: FRET assay (IC50)
pIC50: −log10 of the molar value.
Can you tell me pIC50 for the items I'm about to list?

QUERY: Quick one: pIC50 of Cc1c(NC(=O)c2cc3n(n2)CCC[C@H]3N2CCC(C(=O)O)CC2)cccc1-c1cccc(Nc2nc(C(F)F)nc3cc(CN4CC[C@@H](O)C4)cnc23)c1C [Compound 268] ?
RESULT: 7.00 to 8.00

QUERY: Quick one: pIC50 of O=C(O)CN[C@H]1CCCn2nc(C(=O)Nc3cccc(-c4cccc(NC(=O)c5cc6n(n5)CCC[C@@H]6NCC(=O)O)c4Cl)c3Cl)cc21 [Compound 317] ?
RESULT: > 8.00

QUERY: Quick one: pIC50 of O=C(Nc1cccc(-c2cccc(Nc3nc(C(F)F)nc4cc(CN5CC[C@@H](O)C5)cnc34)c2Cl)c1Cl)c1cc2n(n1)CCC[C@@H]2N1CCC(O)CC1 [Compound 295] ?
RESULT: 7.00 to 8.00

QUERY: Quick one: pIC50 of COc1cc(-c2cccc(-c3cccc(NC(=O)c4cc5n(n4)CCCC5O)c3Cl)c2Cl)cc(F)c1CN1CC[C@@H](O)C1 (stereo partly drawn) [Compound 117] ?
RESULT: 7.00 to 8.00

QUERY: Quick one: pIC50 of Cc1c(NC(=O)c2cc3n(n2)CCC[C@H]3NCC(=O)O)cccc1-c1cccc(Nc2nc(C(F)F)nc3cc(CN4CC[C@@H](O)C4)cnc23)c1C [Compound 213] ?
RESULT: > 8.00

QUERY: Quick one: pIC50 of Cc1c(NC(=O)c2cc3n(n2)CCCC3NCC(=O)O)cccc1-c1cccc(NC(=O)c2nc3c(n2C)CCN(CCC24CCC(C(=O)O)(CC2)C4)C3)c1C (stereo not drawn) [Compound 50] ?
RESULT: > 8.00

QUERY: Quick one: pIC50 of O=C(Nc1cccc(-c2cccc(Nc3nc(C(F)F)nc4cc(CN5CC(F)C5)cnc34)c2Cl)c1Cl)c1cc2n(n1)CCC[C@@H]2N1CCC(O)CC1 [Compound 269] ?
RESULT: 7.00 to 8.00

QUERY: Quick one: pIC50 of CN(C)[C@H]1CCCn2nc(C(=O)Nc3cccc(-c4cccc(NC(=O)c5cc6n(n5)CCC[C@@H]6N(C)C)c4Cl)c3Cl)cc21 [Compound 311] ?
RESULT: > 8.00

QUERY: Quick one: pIC50 of CS(=O)(=O)NCCNC1CCCn2nc(C(=O)Nc3cccc(-c4cccc(Nc5nccc6cc(CN7CC[C@@H](O)C7)cnc56)c4Cl)c3Cl)cc21 (stereo partly drawn) [Compound 235] ?
RESULT: 7.00 to 8.00

QUERY: Quick one: pIC50 of COc1nc(-c2cccc(-c3cccc(-c4cc5n(n4)CCCC5NCC(=O)O)c3Cl)c2Cl)cnc1CNC[C@@H]1CCC(=O)N1 (stereo partly drawn) [Compound 169] ?
RESULT: > 8.00

QUERY: Quick one: pIC50 of Cc1c(-c2cc3n(n2)CCCC3NCCO)cccc1-c1cccc(-c2cc3n(n2)CCCC3N2CC[C@@H](O)C2)c1C (stereo partly drawn) [Compound 157] ?
RESULT: < 6.00

QUERY: Quick one: pIC50 of Cc1c(NC(=O)c2ccc(CN3CC[C@@H](O)C3)cn2)cccc1-c1cccc(NC(=O)c2cc3n(n2)CCN(CC(=O)O)C3)c1C [Compound 326] ?
RESULT: > 8.00
